Reference source: paper PMC3416963

Hi there, I'd appreciate the recorded kcat/Km for every entry that follows.
- Substrate: O=C(O)c1cc(C(=O)O)oc(=O)c1
- assay: purified protein
- Type: biochemical, Sphingobium sp. SYK-6
- protocolConditions: 50 mM BICINE pH 8.25, 30 °C
One number for each entry, in M⁻¹ s⁻¹.

The following proteins have reported results that may help.
LigI (Sphingobium sp. SYK-6; H178C) (protein) TNDERILSWNETPSKPRYTPPPGAIDAHCHVFGPMAQFPFSPKAKYLPRDAGPDMLFALRDHLGFARNVIVQASCHGTDNAATLDAIARAQGKARGIAVVDPAIDEAELAALHEGGMRGIRFNFLKRLVDDAPKDKFLEVAGRLPAGWHVVIYFEADILEELRPFMDAIPVPIVIDCMGRPDVRQGPDGADMKAFRRLLDSREDIWFKATCPDRLDPAGPPWDDFARSVAPLVADYADRVIWGTDWPHPNMQDAIPDDGLVVDMIPRIAPTPELQHKMLVTNPMRLYWSEEM; 780000
LigI (Sphingobium sp. SYK-6; H29N) (protein) TNDERILSWNETPSKPRYTPPPGAIDANCHVFGPMAQFPFSPKAKYLPRDAGPDMLFALRDHLGFARNVIVQASCHGTDNAATLDAIARAQGKARGIAVVDPAIDEAELAALHEGGMRGIRFNFLKRLVDDAPKDKFLEVAGRLPAGWHVVIYFEADILEELRPFMDAIPVPIVIDHMGRPDVRQGPDGADMKAFRRLLDSREDIWFKATCPDRLDPAGPPWDDFARSVAPLVADYADRVIWGTDWPHPNMQDAIPDDGLVVDMIPRIAPTPELQHKMLVTNPMRLYWSEEM; 500

Now look at this entry.
# input protein: LigI (Sphingobium sp. SYK-6; Y47F) (protein) TNDERILSWNETPSKPRYTPPPGAIDAHCHVFGPMAQFPFSPKAKFLPRDAGPDMLFALRDHLGFARNVIVQASCHGTDNAATLDAIARAQGKARGIAVVDPAIDEAELAALHEGGMRGIRFNFLKRLVDDAPKDKFLEVAGRLPAGWHVVIYFEADILEELRPFMDAIPVPIVIDHMGRPDVRQGPDGADMKAFRRLLDSREDIWFKATCPDRLDPAGPPWDDFARSVAPLVADYADRVIWGTDWPHPNMQDAIPDDGLVVDMIPRIAPTPELQHKMLVTNPMRLYWSEEM ; wanted: its kcat/Km 120000
